Data provenance is paper PMC9394399.

Target: KRAS^WT (Homo sapiens, UniProt P01116)
Sequence (P01116 1-188 isoform P01116-2): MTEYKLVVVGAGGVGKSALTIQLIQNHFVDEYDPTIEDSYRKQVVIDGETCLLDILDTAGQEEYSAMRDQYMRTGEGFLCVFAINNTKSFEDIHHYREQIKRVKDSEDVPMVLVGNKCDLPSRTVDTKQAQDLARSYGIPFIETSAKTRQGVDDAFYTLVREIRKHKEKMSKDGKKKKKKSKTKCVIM
Test: cRAF recruitment NanoBiT PPI luminescence assay in HEK293
pIC50: −log10 of the molar value.
QUANTITY NAME: pIC50

[Q] I'd like to know its pIC50. The compound in question is C=CC(=O)N1CC2(CC(n3nc(-c4ccc5c(cnn5C)c4)c(-c4c(Cl)c(C)cc5[nH]ncc45)c3C)C2)C1
[A] < 6.00

* * *

Test system: pERK in NCI-H1437 (RAS^WT/MEK^Q56P)
Test: pERK MesoScale Discovery assay
Type: cell-based
Conditions: Homo sapiens, NCI-H1437, 2 h, read-out: pERK IC50
pIC50: −log10 of the molar value.
QUANTITY NAME: pIC50

[Q] Which pIC50 value belongs to C=CC(=O)N1CC2(CC(n3nc(-c4ccc5c(cnn5C)c4)c(-c4c(Cl)c(C)cc5[nH]ncc45)c3C)C2)C1 [JDQ443] ?
[A] < 6.00

* * *

Tested on: pERK in NCI-H2122 (KRAS^G12C)
Assay: pERK MesoScale Discovery assay
Type: cell-based
Conditions: Homo sapiens, NCI-H2122, 2 h, read-out: pERK IC50
QUANTITY NAME: IC50 (nM)
All answers are understood in nM, so give the number only.

[Q] Data request, read-out IC50, for C=CC(=O)N1CC2(CC(n3nc(-c4ccc5c(cnn5C)c4)c(-c4c(Cl)c(C)cc5[nH]ncc45)c3C)C2)C1
[A] 63

* * *

Target: UniProt P01116
QUANTITY NAME: pKd
Value format note: pKd is -log10 of concentration (mol/L); just state the number.

[Q] Return reported pKd; argument: C=CC(=O)N1CC2(CC(n3nc(-c4ccc5c(cnn5C)c4)c(-c4c(Cl)c(C)cc5[nH]ncc45)c3C)C2)C1
[A] 4.51

* * *

Target: GDP-bound HRAS^WT (Homo sapiens)
Sequence (P01112 1-169): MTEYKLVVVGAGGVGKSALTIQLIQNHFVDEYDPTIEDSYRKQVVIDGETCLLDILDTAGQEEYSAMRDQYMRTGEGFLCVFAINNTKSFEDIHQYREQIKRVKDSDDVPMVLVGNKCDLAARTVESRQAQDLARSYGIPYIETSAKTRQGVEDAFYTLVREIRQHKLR
QUANTITY NAME: Kd (µM)
Give a bare numeral; the unit µM is implied.

[Q] For C=CC(=O)N1CC2(CC(n3nc(-c4ccc5c(cnn5C)c4)c(-c4c(Cl)c(C)cc5[nH]ncc45)c3C)C2)C1 , what is its reported Kd?
[A] 86.5
